# Target Desc: Cellular tumor antigen p53 (Homo sapiens) (UniProt P04637)
# Sequence (P04637 whole entry, looked up): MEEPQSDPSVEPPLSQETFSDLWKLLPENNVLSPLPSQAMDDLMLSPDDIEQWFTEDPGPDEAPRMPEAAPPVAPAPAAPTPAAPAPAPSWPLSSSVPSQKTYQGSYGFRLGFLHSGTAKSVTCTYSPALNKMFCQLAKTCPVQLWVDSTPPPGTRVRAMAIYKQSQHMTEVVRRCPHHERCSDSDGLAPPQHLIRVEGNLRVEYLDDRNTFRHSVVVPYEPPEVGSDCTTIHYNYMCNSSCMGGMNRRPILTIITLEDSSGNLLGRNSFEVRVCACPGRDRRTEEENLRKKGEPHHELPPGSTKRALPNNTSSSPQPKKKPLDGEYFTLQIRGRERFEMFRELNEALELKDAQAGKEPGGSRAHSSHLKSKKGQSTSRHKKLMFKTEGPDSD
# Test Description: Primary qHTS for small molecule compounds that upregulate eGFP-tagged delta133p53alpha (in N-terminal) cells. (AID 2060322);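 note: cells pre-induced with doxycycline then dosed without doxycycline; 0% = DMSO vehicle and 100% = reference activator; nearly all actives have a fitted effect of over 75% in size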
# Condition Description: NCI-H358 eGFP-delta133p53alpha fluorescence, 24 h; hits give high values
Inconclusive results are not listed.
The entries below come with measured activation values attached.
The reply should be a number in %, with the unit left off.

Answered cases to consult:
# lookup: activation of CO[C@H]1C[C@H](O[C@H]2CC[C@@]3(C)C(=CCC4C3CC[C@]3(C)[C@@H](C5=CC(=O)OC5)CC[C@]43O)C2)O[C@@H](C)[C@@H]1O[C@@H]1O[C@H](CO[C@@H]2O[C@H](CO)[C@@H](O)[C@H](O)[C@H]2O)[C@@H](O)[C@H](O)[C@H]1O (stereo partly drawn)
0

Param item: c1ccc(C2(c3ccccc3)OC[C@@H]([C@H]3CCCCN3)O2)cc1
2.86

Repeat with CCOC(=O)C1(CCc2ccccc2)CCN(Cc2ccc(NC(C)=O)cc2)CC1
-12.4

Others:
Would you mind telling me what activation value was observed for Nc1ccc(CCN2CCN(c3cccc(C(F)(F)F)c3)CC2)cc1 ?
-62.8

Try Sc1ccccc1Cl next.
-0.837

What about C[C@@]1(C(=O)O)CC[C@]2(C)CC[C@]3(C)C4=CC(=O)c5cc(O)c(O)cc5[C@]4(C)CC[C@@]3(C)[C@@H]2C1 ?
-19.1

What would you report for CC(=O)O[C@H]1CN2CCC1CC2 ?
5

What do you have for COC1CC(O[C@H]2CC[C@@]3(C)C(=CCC4C3C(O)[C@@H](O)[C@]3(C)[C@@H](C(C)=O)CC[C@]43O)C2)OC(C)C1OC1CC(OC)C(OC2OC(C)C(O)C(O)C2O)C(C)O1 (stereo partly drawn) ?
-14.5

* * *

# Test Description: BET inhibitor-based combinations targeting novel dependencies in MECOM-rearranged (r) AML: OCI-AML3 cell line (AID 2202232); note: nearly all actives have a fitted effect of over 35% in size
# Condition Description: CellTiter-Glo luminescence, 48 h; OCI-AML3 viability; series mostly up to 46 µM
Results filed as inconclusive are left out. The source made the active and inactive calls. Calls follow the shape of the dose curve; as a rule, active = well fitted inhibition curve with a large enough effect; inconclusive = small, poorly fitted or top-dose-only effect; inactive = no such curve, though single readings can be large or run the other way.
Valid outcomes are listed here; reply with one: class 1 = active, class 0 = inactive

Use these answered entries as a reference point.
In this assay, the call recorded for CNCC(O)c1ccc(O)cc1 (configuration not stated) was what?
class 0

Now this one: CC[C@@]1(O)C(=O)OCc2c1cc1n(c2=O)Cc2cc3ccccc3nc2-1
class 1

Can you check COC12C(COC(N)=O)C3=C(C(=O)C(C)=C(N)C3=O)N1CC1C2N1C (configuration not stated) next?
class 0

Can you check CC1=C2C[C@H]3[C@@H](CC=C4C[C@@H](O)CC[C@@]43C)[C@@H]2CC[C@]12O[C@@H]1C[C@H](C)CN[C@H]1[C@H]2C next?
class 0

Moving on to the next compound: CC(C)[C@]12O[C@H]1[C@@H]1O[C@@]13[C@@]1(C)CCC4=C(COC4=O)[C@@H]1C[C@@H]1O[C@@]13C2=O
class 1

---
Look up the recorded call for CC1(N2CCC(n3c([C@@H]4CCCNC4)nc4ccccc43)CC2)CCCCCCC1 in this test.
class 1

Same lookup for C[C@@H]1CC[C@H]2[C@@H](C)C(=O)O[C@@H]3O[C@@]4(C)CC[C@@H]1[C@]32OO4 , please.
class 1

Every entry's value here was drawn from PubChem BioAssay (NCATS).
